Give GI50 for every item shown.
System: SNB-19
Experiment Notes: NCI tumour cell line growth inhibition, 48 h
The source made the active and inactive calls. Rule as the data show it: active = GI50 up to about 1.1 µM and inactive = higher. Where a SMILES comes first, the peptide text is derived from it. The star is where a group is joined. Cbz = O=C(OCc1ccccc1)*; Bn = c1ccc(C*)cc1

Solved entries (count: 5):
>>> measurement("COC(=O)C(Cc1ccc(O)cc1)NC(=O)C(COCc1ccccc1)NC(=O)OCc1ccccc1 (stereo unspecified) (Cbz-Ser(Bn)-Tyr-OMe; configuration not given here)")
"16.9 µM (inactive)"
>>> measurement("O=C(CC(C(=O)c1cccs1)c1cccs1)c1ccsc1 (stereo unspecified)")
"75.2 µM (inactive)"
>>> measurement("c1ccc(C(NCC2CCO2)(c2ccccc2)c2ccccc2)cc1 (stereo unspecified)")
"13.7 µM (inactive)"
>>> measurement("CC(C)N(C(=O)C12C3C4C1C1C2C3C41C#N)C(C)C (stereo unspecified)")
"> 100 µM (inactive)"
>>> measurement("CC(=O)OCC(C)C1=C(O)C(=O)C2(C)C/C=C(/C)CC/C=C(\\C)CCC(O)C(C)CCC12 (stereo unspecified)")
"18.4 µM (inactive)"

Consider the record given below.
# input Please report GI50 with SNB-19 for item CN(C(=O)C1CC1)C1C2CN3CCC(O2)C13 (stereo unspecified) .
# output > 100 µM (inactive)

----------
Could you please report measured GI50 for the items listed next?
Test system: ACHN
Experiment Notes: NCI tumour cell line growth inhibition, 48 h
Activity calls are given as the source filed them. Rule as the data show it: active = GI50 up to about 1.1 µM and inactive = higher.

>>> measurement("C[C@]12CC[C@H]3[C@@H](CCC4=CC(=O)C=C[C@@]43OC(=O)C(F)(F)F)[C@@H]1CCC2=O")
"> 100 µM (inactive)"
>>> measurement("CCc1nc2cc(F)ccc2[nH]c1=O")
"> 100 µM (inactive)"
>>> measurement("O=C1O[C@H](C(Cl)(Cl)Cl)N2CCCC12 (stereo partly drawn)")
"> 100 µM (inactive)"
>>> measurement("CC1(C)C[C@H]2C=C(C=O)[C@]34C[C@]3(C(=O)OC4O)[C@H]2C1 (stereo partly drawn)")
"1.53 µM (inactive)"
>>> measurement("NC(=O)C1N=NSC1NC(=O)c1ccc([N+](=O)[O-])cc1 (stereo not drawn)")
"59.4 µM (inactive)"

Please give GI50, item by item, for the list that follows.
1. COC1CC(OS(=O)(=O)c2ccc(C)cc2)C(OC(=O)c2ccccc2)C(C)O1 (stereo not drawn)
2. CC(C)(C)C1(O)Cc2ccccc2C(=O)O1 (stereo not drawn)
3. Cc1ccc(Nc2nc(C)c(C(=O)CC(=O)C(=O)Nc3ccc(Cl)cc3)s2)cc1
4. COC(=O)C(C(=O)C(=O)Nc1c(Cl)cc([N+](=O)[O-])cc1Cl)c1nc2cc(C)c(C)cc2nc1O (stereo not drawn)
5. Oc1c(CN2CCOCC2)ccc2cccnc12
6. CC(C(=O)COCc1ccccc1)P1(=O)OC(C)(C)CN1C(C)(C)C (stereo not drawn)
7. Cc1cccc(C)c1NC(=O)CCCC(=O)C1/C(=N/NC(=O)CC#N)CCC/C1=N\NC(=O)CC#N (stereo not drawn)

# output
1. > 10 µM (inactive)
2. > 100 µM (inactive)
3. > 100 µM (inactive)
4. > 100 µM (inactive)
5. > 10 µM (inactive)
6. > 100 µM (inactive)
7. > 100 µM (inactive)

# input Please report the measured GI50 for `N=C(N)NC(=N)Nc1ccc(S(N)(=O)=O)cc1`
# output > 100 µM (inactive)

----------
System: DLD-1
Experiment Notes: NCI tumour cell line growth inhibition, 48 h
The source made the active and inactive calls. Cut-off read from the data, not from the text of the source: active = GI50 up to about 1.1 µM and inactive = higher.
Property Name: GI50

>>> measurement("CNS(=O)(=O)NNS(=O)(=O)c1ccc(Cl)cc1")
"> 100 µM (inactive)"
>>> measurement("COc1ccc(-c2nnc(-c3c(C)n(C)n(-c4ccccc4)c3=O)o2)cc1")
"> 100 µM (inactive)"
>>> measurement("C=C(C)C1CC[C@]2(C(=O)O)CCC3(C)[C@H](CCC4[C@@]5(C)CC[C@H](OC6OC(CO)C(O)C6OC6OC(C)C(O)C(O)C6O)[C@@](C)(CO)C5CC[C@]43C)C12 (stereo partly drawn)")
"33.9 µM (inactive)"

Below are some compounds; for each one, tell me its GI50.
1. Cc1cc2c(Br)cc(Br)c(O)c2nc1C(=O)c1ccccc1
2. CCOC(=O)Nn1c(C)cc(C(=O)OC)c1C
3. Nc1ccc(C(=O)NN2C(=O)C(Cl)C2c2ccccc2O)cc1 (stereo not drawn)
4. CC(C)(C)C1(O)Cc2ccccc2C(=O)O1 (stereo not drawn)
5. CCCCCCCCCCCC(=O)OCCOCCOCCOCCOCCOC(=O)CCCCCCCCCCC

# output
["36.6 µM (inactive)", "> 100 µM (inactive)", "54.3 µM (inactive)", "> 100 µM (inactive)", "> 100 µM (inactive)"]

Parameter requested: GI50. Apply to each item below.
1. CC(C)=CCCc1c(C)ccc2c1C(=O)C(=O)C(C(C)C)=C2
2. CCOC(=O)C(=O)Nc1ccccc1CC
3. Nc1c(/N=N/c2ccc(-c3ccc(/N=N/c4c(O)ccc5cc(S(=O)(=O)O)cc(S(=O)(=O)O)c45)cc3)cc2)c(S(=O)(=O)O)cc2cc(S(=O)(=O)O)c(/N=N/c3ccccc3)c(O)c12
4. COc1nc(NC2OCC(OC(C)=O)C(OC(C)=O)C2OC(C)=O)c(/N=C\C=N\c2c(NC3OCC(OC(C)=O)C(OC(C)=O)C3OC(C)=O)nc(OC)n(C)c2=O)c(=O)n1C (stereo not drawn)
5. CCOc1ccc(/N=N/c2ccc3oc(=O)c(C(=O)Nc4ccc(OC)cc4)cc3c2)cc1

# output
1: 3.48 µM (inactive); 2: > 100 µM (inactive); 3: > 100 µM (inactive); 4: > 100 µM (inactive); 5: 8.32 µM (inactive)

----------
Test system: M14
Experiment Notes: NCI tumour cell line growth inhibition, 48 h
Activity calls are given as the source filed them. No stated cut-off is given here; in the data, active = GI50 up to about 1.1 µM and inactive = higher. Square brackets hold non-standard residues; d marks the D form. Peptide text beside a SMILES is read from it. pGlu = O=C1CC[CH](C(=O)O)N1
Property Name: GI50

Examples with answers:
>>> measurement("CC(C)(C)c1cc(C(C)(C)C)c(SS(=O)(=O)O)c(O)c1O")
"41.3 µM (inactive)"
>>> measurement("C/C(=N/NC(=O)c1ccccc1O)c1ccc(/C(C)=N\\NC(=O)c2ccccc2O)c2nc3cc(C)c(C)cc3nc12")
"> 100 µM (inactive)"
>>> measurement("OC1CCN2Cc3ccccc3N=C12 (stereo not given)")
"> 100 µM (inactive)"
>>> measurement("CCOC(=O)/C(=N/Nc1ccccc1)N1C(=S)N(C)N=C(C)C=C1S")
"> 100 µM (inactive)"

# input Read the entry CC(NC(=O)C(Cc1c[nH]cn1)NC(=O)C1CCC(=O)N1)C(N)=O (stereo not drawn) ([pGlu]-His-Ala-NH2; configuration not given here) and write its reported GI50.
# output > 100 µM (inactive)

----------
Test system: SF-268
Experiment Notes: NCI tumour cell line growth inhibition, 48 h
Calls of active or inactive are those of the source. Cut-off read from the data, not from the text of the source: active = GI50 up to about 1.1 µM and inactive = higher.
Permitted responses: yes = active, no = inactive

>>> cat("Cc1cc2c(C)nn(Cc3ccccc3)c2c(C(=O)O)c1C")
"no"
>>> cat("COC(=O)c1ccc2c(c1)C(NC(C)=O)CCc1cc(OC)c(OC)c(OC)c1-2 (centres undefined)")
"yes"

# input Returns: the outcome recorded for `COc1ccc(-c2nnc(-c3c(C)n(C)n(-c4ccccc4)c3=O)o2)cc1` in this assay.
# output no

# input Short answer needed: outcome of this test for `COC[C@H](C)/N=C/N1CCc2ccccc2C1(Cc1ccccc1)Cc1ccccc1` ?
# output no

# input Tell me the recorded outcome of this test for `C=C1C(=O)O[C@@H]2C[C@@H]3[C@]4(CC[C@]5(C)[C@@H]([C@H](C)CC/C=C(\C)C=O)CC[C@@]35C)C[C@]4(CCC(=O)OC)[C@H]12` .
# output no

# input Please share the test call associated with COc1cc(C2c3cc(OC)c(OC)c(O)c3C(=O)C3CCC(=O)N32)cc(OC)c1OC (centres undefined) .
# output no

# input Outcome logged for `CC(C)(C)OC(=O)Cc1ccc2c(ccn2Cc2ccccc2)c1` in this assay:
# output no

# input What did this assay record as the result for `O=C(/C(=C/c1ccc(O)cc1)c1ccccc1)c1ccccc1` ?
# output no

# input # fetch the recorded call for CN(C(=O)c1ccccc1)C1CCCC(=O)CC1 (centres undefined) here
# output no

# input Name the outcome recorded for `C/C(CN1C(=O)c2ccccc2C1=O)=N\NS(=O)(=O)c1ccc(F)cc1` in the assay.
# output no

# input Could you check what this test reported for COc1ccc(C2(Cl)C(Cl)(C(F)(F)F)C2(Cl)C(F)(F)F)cc1 (centres undefined) ?
# output no

# input Each molecule tested received a call. Report the one for O=C1CC23CC(=O)CC2(C1)c1ccccc1C3=O (centres undefined) .
# output no

# input Tell me the recorded outcome of this test for `C=CCN1C(=O)/C(=C/c2ccc(C)cc2)NC1=S` .
# output no

# input What call does the record list for COc1ccc(N2C(=O)c3c4c(c5c([nH]c6ncccc65)c3C2=O)CCC(C(C)(C)C)C4)cc1 (centres undefined) ?
# output no

# input What outcome does the record of this test show for `CN(/N=C/c1ccnc2ccccc12)c1ccc([N+](=O)[O-])cc1[N+](=O)[O-]` ?
# output no

# input Hi, sorry to bother you, what did the test record for C[C@H]1CCC2C(CN3CCCCC3)C(=O)OC2[C@]2(C)C(=O)CC(N3CCCCC3)C12O (some centres undefined) ?
# output no

# input Look up the recorded call for CCC(C)C(NC(=O)C(CCCCN)NC(=O)C(NC(=O)C(CCC(N)=O)NC(=O)C(CCCNC(=N)N)NC(C)=O)C(C)CC)C(=O)NC(Cc1c[nH]c2ccccc12)C(=O)NC(Cc1ccccc1)C(=O)NC(CCC(N)=O)C(=O)NC(CC(N)=O)C(=O)NC(CCCNC(=N)N)C(=O)NC(CCCNC(=N)N)C(=O)NC(CCSC)C(=O)NC(CCCCN)C(=O)NC(Cc1c[nH]c2ccccc12)C(=O)NC(CCCCN)C(=O)NC(CCCCN)C(N)=O (centres undefined) in this test.
# output no

# input I would be grateful if you could indicate the recorded call for `O=C(O)CCC(=O)N1C/C(=C\c2ccccc2)C(=O)/C(=C/c2ccccc2)C1` .
# output no
